biological target: His-LAMA4 as used in Example 6 (species not stated) (Homo sapiens (Human)) (UniProt Q16363); test: ForteBio BLI, LAMA-His on anti-His sensor, antibody 8.33 nM
# Response annotations

| binder | Response |
| --- | --- |
| humanized 19C12 antibody H2L3 (antibody, V domains shown) VH: QVQLQQSGAELVKPGASVKVSCKASGYAFSTYWMNWVRQAPGQGLEWIGQIYPGDGDTNYNGKFKGRVTITADKSTSTAYMELSSLRSEDTAVYFCARSDGYYDYWGQGTTVTVSS VL: NIVLTQSPASLAVSLGERATISCRASESVDSYGTSFMHWYQQKPGQPPKLLICLASSLESGVPARFSGSGSRTDFTLTIDPVEAEDAATYYCQQNNEDPPTFGAGTKLEIKR | 1.23 |
| humanized 19C12 antibody H2L6 (antibody, V domains shown) VH: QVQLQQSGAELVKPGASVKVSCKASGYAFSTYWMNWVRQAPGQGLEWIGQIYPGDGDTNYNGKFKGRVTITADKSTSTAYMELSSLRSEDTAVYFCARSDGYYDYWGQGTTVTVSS VL: DIVLTQSPASLAVSLGERATISCRASESVDSYGTSFMHWYQQKPGQPPKLLISLASSLESGVPARFSGSGSGTDFTLTISPVEAEDAATYYCQQNNEDPPTFGAGTKLEIKR | 1.13 |
